This section presents binders with their documented Kd values.
Target: T1, AtARF1-DBD (Arabidopsis thaliana, UniProt Q8L7G0 1-355)
T1 sequence: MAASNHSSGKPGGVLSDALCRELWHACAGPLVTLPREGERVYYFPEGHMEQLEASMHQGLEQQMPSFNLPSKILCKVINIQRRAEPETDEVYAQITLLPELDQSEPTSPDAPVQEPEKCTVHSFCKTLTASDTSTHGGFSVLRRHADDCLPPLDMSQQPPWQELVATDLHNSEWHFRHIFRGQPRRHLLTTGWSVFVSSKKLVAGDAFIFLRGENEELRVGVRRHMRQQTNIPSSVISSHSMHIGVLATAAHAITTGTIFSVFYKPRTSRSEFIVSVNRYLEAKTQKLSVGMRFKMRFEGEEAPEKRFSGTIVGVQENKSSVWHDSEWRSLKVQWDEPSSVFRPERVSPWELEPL
Test: smFRET titration
parameter-measured: Kd (nM)

binder: IR8 (dsDNA) DNA 1: ACTCTTTTTTGTCGGGGAAAAGGCCGACAATCCGTGTG DNA 2: CACACGGATTGTCGGCCTTTTCCCCGACAAAAAAGAGT
parameter-measured: Kd
unit-name: nM
recorded-value: 140
//
binder: DR5 (dsDNA) DNA 1: ACTGCCTTTTGTCGGCCTTTTGTCGGATCCGTGTG DNA 2: CACACGGATCCGACAAAAGGCCGACAAAAGGCAGT
parameter-measured: Kd
unit-name: nM
recorded-value: 570
